Biological target: T1, human IL-18BP (human, UniProt O95998 31-194)
T1 construct: UniProt printed as 095998; also called hIL-18BP
T1 sequence: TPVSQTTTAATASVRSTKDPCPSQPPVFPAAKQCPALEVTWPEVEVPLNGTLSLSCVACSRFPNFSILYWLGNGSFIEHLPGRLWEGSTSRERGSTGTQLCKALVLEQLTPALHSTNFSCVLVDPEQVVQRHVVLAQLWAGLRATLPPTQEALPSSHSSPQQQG
Experiment: BLI, apparent KD
Param label: returns yes when Kd < 1 nM, returns no otherwise, including exact equality.

SA301a HC-Y96E (antibody, name in Kabat numbering, V domains shown, IgG1 kappa) VH: QVQLQESGPGLVKPSQTLSLTCTVSGYSITSDYNSHWIRQPPGKGLEWIGYIHYSGSTNYNPSLKSRVTISRDTSKNQFSLKLSSVTAADTAVYYCARNEGSIYVNYFDYWGQGTLVTVSS VL: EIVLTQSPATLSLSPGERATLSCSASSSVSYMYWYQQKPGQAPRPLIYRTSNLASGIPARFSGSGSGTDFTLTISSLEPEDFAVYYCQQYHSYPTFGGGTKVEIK ... yes
SA301a HC-G97K (antibody, name in Kabat numbering, V domains shown, IgG1 kappa) VH: QVQLQESGPGLVKPSQTLSLTCTVSGYSITSDYNSHWIRQPPGKGLEWIGYIHYSGSTNYNPSLKSRVTISRDTSKNQFSLKLSSVTAADTAVYYCARNYKSIYVNYFDYWGQGTLVTVSS VL: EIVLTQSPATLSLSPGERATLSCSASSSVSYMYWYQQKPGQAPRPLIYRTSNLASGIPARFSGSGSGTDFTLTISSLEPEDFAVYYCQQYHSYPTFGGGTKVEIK ... no
SA301a HC-G97E (antibody, name in Kabat numbering, V domains shown, IgG1 kappa) VH: QVQLQESGPGLVKPSQTLSLTCTVSGYSITSDYNSHWIRQPPGKGLEWIGYIHYSGSTNYNPSLKSRVTISRDTSKNQFSLKLSSVTAADTAVYYCARNYESIYVNYFDYWGQGTLVTVSS VL: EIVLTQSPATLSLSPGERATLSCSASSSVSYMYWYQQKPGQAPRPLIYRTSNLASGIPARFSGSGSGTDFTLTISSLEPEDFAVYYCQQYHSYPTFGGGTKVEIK ... no

Next binder, please.
Field: below-cutoff. Rule: recorded Kd strictly less than 1 nM. Subject: SA301a HC-Y96Q (antibody, name in Kabat numbering, V domains shown, IgG1 kappa) VH: QVQLQESGPGLVKPSQTLSLTCTVSGYSITSDYNSHWIRQPPGKGLEWIGYIHYSGSTNYNPSLKSRVTISRDTSKNQFSLKLSSVTAADTAVYYCARNQGSIYVNYFDYWGQGTLVTVSS VL: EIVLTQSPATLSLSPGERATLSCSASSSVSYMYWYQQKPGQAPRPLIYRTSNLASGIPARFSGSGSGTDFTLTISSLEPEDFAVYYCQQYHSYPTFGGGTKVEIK yes
